Molecular target: HLA-A02:01 (human)
Experiment: peptide-HLA stability, Example 41
Conditions: remark: other sources report otherwise
Value type: Stability (1/2 hr) (h)
Use h as the unit, but write only the number.

IMQLMPFGCL = 0.516

Quick check: Stability (1/2 hr) of CLTSTVQLIM ?
0

Entry IMQLMPFGC please
0.37
